assayMethodText: Acute toxicity in po dosed albino CFW mouse assessed as mortality measured over 48 hrs
Assay type: organism-based
details: albino CFW, in vivo
Response field label takes condition met when LD50 at 48 h is strictly below 2000 µmol/kg and condition not met in all other cases.

compound: Cl.c1ccc(CNC2CC3CC4CC(C3)C2C4)cc1 (stereo unspecified)
group: condition met
--
compound: CNCCC12CC3CC(CC(C3)C1Br)C2.O=C(O)/C=C\C(=O)O (stereo unspecified)
group: condition met
--
compound: CNCC12CC3CC(CC(C3)C1Br)C2.Cl (stereo unspecified)
group: condition met

Below 2000 µmol/kg on LD50 at 48 h? Entry Cl.NC1CC2CC3CC(C2)C1C3 (stereo unspecified)
condition not met

Quick check: does CN1CCN(CC2(O)CC3CC4CC(C3)C2C4)CC1.Cl (stereo unspecified) have LD50 at 48 h under 2000 µmol/kg?
condition not met

Determine whether this compound shows LD50 at 48 h lower than 2000 µmol/kg (ties excluded): CNCC1CC2CC3CC(C2)C1C3.O=C(O)/C=C\C(=O)O (stereo unspecified)
condition met

---

Catalogue of LD50 at 48 h readings, one per entry.
assayMethodText: Acute toxicity in po dosed albino CFW mouse assessed as mortality measured over 48 hrs
Format: organism-based
details: albino CFW, in vivo
Give the value in µmol/kg but do not write µmol/kg after it.

Field: example entries. Status: answers known.
molecule: Cl.Clc1ccc(CNC2CC3CC4CC(C3)C2C4)cc1 (configuration not stated)
measured: 1900
--
molecule: CNCC12CC3CC(CC(C3)C1Cl)C2.Cl (configuration not stated)
measured: 1200
--
molecule: Cl.OCCNC1CC2CC3CC(C2)C1C3 (configuration not stated)
measured: 2600
--
molecule: Cl.c1ccc(CCNC2CC3CC4CC(C3)C2C4)cc1 (stereo in doubt; 12)
measured: 1000

For CNCCC12CC3CC(CC(C3)C1Cl)C2.Cl (configuration not stated) , what is its reported LD50 at 48 h?
1500

I am curious: what LD50 at 48 h value has been reported for CNC1CC2CC3CC(C2)C1C3.Cl (configuration not stated) ?
2000

What value of LD50 at 48 h has been reported for the following molecule? CN(C)CC12CC3CC(CC(C3)C1Br)C2.Cl (configuration not stated)
1300

I'd like to know its LD50 at 48 h. The molecule in question is O=C(O)/C=C\C(=O)O.c1ccc(CNCC2CC3CC4CC(C3)C2C4)cc1 (configuration not stated)
500

Could you share which LD50 at 48 h value was measured for CN1CCN(CC23CC4CC(CC(C4)C2O)C3)CC1.Cl (configuration not stated) ?
1200

// returns reported LD50 at 48 h for input CNCC1(O)CC2CC3CC(C2)C1C3.O=C(O)/C=C\C(=O)O (configuration not stated)
3900

Look at this molecule and give its reported LD50 at 48 h. CN(C)CC1(O)CC2CC3CC(C2)C1C3.Cl (configuration not stated)
1600

// LD50 at 48 h lookup, key: Br.CN1CCN(CC23CC4CC(CC(C4)C2Br)C3)CC1 (configuration not stated)
1200

---

assayMethodText: Acute toxicity in ip dosed albino CFW mouse assessed as mortality measured over 48 hrs
Format: organism-based
details: albino CFW, in vivo
Returns: string. Value is 1.0 if measured LD50 at 48 h is below 600 µmol/kg, and 0.0 if it is greater than or equal to it.

Take a look at these entries with their results.
compound: CN1CCN(CC2(O)CC3CC4CC(C3)C2C4)CC1.Cl (stereo unspecified)
group: 0.0
//
compound: CNC1CC2CC3CC(C2)C1C3.Cl (stereo unspecified)
group: 0.0

Find out if reported LD50 at 48 h for O=C(O)/C=C\C(=O)O.c1ccc(CNCC2CC3CC4CC(C3)C2C4)cc1 (stereo unspecified) is less than 600 µmol/kg
1.0

Does this compound meet the criterion LD50 at 48 h < 600 µmol/kg? CNCC1(O)CC2CC3CC(C2)C1C3.O=C(O)/C=C\C(=O)O (stereo unspecified)
0.0

Dear colleague, could you confirm whether LD50 at 48 h of Cl.c1ccc(CNC2CC3CC4CC(C3)C2C4)cc1 (stereo unspecified) falls below 600 µmol/kg? Thanks.
1.0

Data origin: ChEMBL document CHEMBL3272084
